Target: influenza A virus minigenome (PB2, PB1, PA, NP proteins) (UniProt P04665)
Sequence (P04665 whole entry): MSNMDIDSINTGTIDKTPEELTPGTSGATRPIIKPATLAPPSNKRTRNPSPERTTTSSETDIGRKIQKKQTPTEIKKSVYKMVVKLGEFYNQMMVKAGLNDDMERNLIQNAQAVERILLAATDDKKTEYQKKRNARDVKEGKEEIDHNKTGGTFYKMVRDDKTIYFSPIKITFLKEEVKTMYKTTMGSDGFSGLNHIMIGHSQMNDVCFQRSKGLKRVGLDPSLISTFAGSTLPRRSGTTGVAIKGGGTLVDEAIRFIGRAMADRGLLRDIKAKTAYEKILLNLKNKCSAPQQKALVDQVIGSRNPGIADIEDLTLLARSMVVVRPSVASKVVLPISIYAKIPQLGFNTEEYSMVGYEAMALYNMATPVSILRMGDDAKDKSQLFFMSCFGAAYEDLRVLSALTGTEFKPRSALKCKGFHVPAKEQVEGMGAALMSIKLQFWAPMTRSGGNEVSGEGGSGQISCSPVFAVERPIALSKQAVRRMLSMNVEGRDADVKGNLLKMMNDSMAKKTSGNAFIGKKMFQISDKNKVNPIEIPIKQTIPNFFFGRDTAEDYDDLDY
Assay type: cell-based
Settings: read-out: RNP_Hubei B
pIC50: −log10 of the molar value.
Endpoint name: pIC50

- Molecule: "NC(=O)c1cc(-c2ccc(OCc3ccc4cc[nH]c4c3)cc2)c(C(F)(F)F)[nH]c1=O"
  Observed measurement: "5.00 to 5.30"
- Molecule: "CC(C)S(=O)(=O)N1CCOC(COc2ccc(-c3cc(C(N)=O)c(=O)[nH]c3C(F)(F)F)cc2)C1 (centres unmarked)"
  Observed measurement: "4.30 to 4.60"
- Molecule: "NC(=O)c1cc(-c2ccc(OCc3ccnnc3)cc2)c(C(F)(F)F)[nH]c1=O"
  Observed measurement: "4.30 to 4.60"
- Molecule: "NC(=O)c1cc(-c2ccc(CN3CCOCC34CC4)cc2)c(C(F)(F)F)[nH]c1=O"
  Observed measurement: "5.00 to 5.30"
- Molecule: "NC(=O)c1cc(-c2ccc(OCc3cccc4nonc34)cc2)c(C(F)(F)F)[nH]c1=O"
  Observed measurement: "4.60 to 5.00"
- Molecule: "NC(=O)c1cc(-c2ccc(CN3CCCCC3)cc2)c(C(F)(F)F)[nH]c1=O"
  Observed measurement: "4.30 to 4.60"
- Molecule: "COCCN1CCOC(COc2ccc(-c3cc(C(N)=O)c(=O)[nH]c3C(F)(F)F)cc2)C1 (centres unmarked)"
  Observed measurement: "4.30 to 4.60"
- Molecule: "CC1(C2COCC(COc3ccc(-c4cc(C(N)=O)c(=O)[nH]c4C(F)(F)F)cc3)O2)CC1 (single isomer, unassigned)"
  Observed measurement: "5.00 to 5.30"

###

Target: influenza A virus minigenome (PB2, PB1, PA, NP proteins)
Type: cell-based
Conditions: read-out: RNP_ Hubei B IC50
# IC50 values compiled below

- Compound: "NC(=O)c1cc(-c2ccc(OC[C@@H]3COCC4(COC4)O3)cc2)c(C(F)(F)F)[nH]c1=O [Example 415]"
  IC50: "5 to 10 µM"
- Compound: "Cc1oncc1COc1ccc(-c2cc(C(N)=O)c(=O)[nH]c2C(F)(F)F)cc1 [Example 269]"
  IC50: "25 to 50 µM"
- Compound: "COCCOC[C@@]1(C)COC[C@@H](COc2ccc(-c3cc(C(N)=O)c(=O)[nH]c3C(F)(F)F)cc2)O1 [Example 430]"
  IC50: "5 to 10 µM"
- Compound: "Cc1ncsc1COc1ccc(-c2cc(C(N)=O)c(=O)[nH]c2C(F)(F)F)cc1 [Example 272]"
  IC50: "25 to 50 µM"
- Compound: "COC(C)(C)COCC1COCC(COc2ccc(-c3cc(C(N)=O)c(=O)[nH]c3C(F)(F)F)cc2)O1 (single isomer, unassigned) [Example 370]"
  IC50: "5 to 10 µM"
- Compound: "NC(=O)c1cc(-c2ccc(OCc3ccon3)cc2)c(C(F)(F)F)[nH]c1=O [Example 223]"
  IC50: "25 to 50 µM"
- Compound: "NC(=O)c1cc(-c2ccc(OCC3C[C@@H]4CC[C@H]3O4)cc2)c(C(F)(F)F)[nH]c1=O (single isomer, unassigned) [Example 314]"
  IC50: "10 to 25 µM"
- Compound: "NC(=O)c1cc(-c2ccc(OCC3COC(CF)CO3)cc2)c(C(F)(F)F)[nH]c1=O (single isomer, unassigned) [Example 342]"
  IC50: "5 to 10 µM"
- Compound: "NC(=O)c1cc(-c2ccc(OCC3CO[C@@H]4[C@H](O3)C4(F)F)cc2)c(C(F)(F)F)[nH]c1=O (stereo partly drawn) [Example 390]"
  IC50: "1 to 5 µM"
- Compound: "Cc1ncc(COc2ccc(-c3cc(C(N)=O)c(=O)[nH]c3C(F)(F)F)cc2)s1 [Example 271]"
  IC50: "25 to 50 µM"
- Compound: "COC[C@H]1COC[C@H](COc2ccc(-c3cc(C(N)=O)c(=O)[nH]c3C(F)(F)F)cc2)O1 (single isomer, unassigned) [Example 401]"
  IC50: "5 to 10 µM"
- Compound: "CC(C)n1cc2c(n1)COCC2COc1ccc(-c2cc(C(N)=O)c(=O)[nH]c2C(F)(F)F)cc1 (single isomer, unassigned) [Example 295]"
  IC50: "5 to 10 µM"
- Compound: "CCOC[C@@]1(C)COC[C@@H](COc2ccc(-c3cc(C(N)=O)c(=O)[nH]c3C(F)(F)F)cc2)O1 [Example 428]"
  IC50: "5 to 10 µM"
- Compound: "NC(=O)c1cc(-c2ccc(OCC3OCC4CCC3O4)cc2)c(C(F)(F)F)[nH]c1=O (single isomer, unassigned) [Example 318]"
  IC50: "5 to 10 µM"
- Compound: "COC[C@]1(C)COC[C@@H](COc2ccc(-c3cc(C(N)=O)c(=O)[nH]c3C(F)(F)F)cc2)O1 [Example 406]"
  IC50: "5 to 10 µM"
- Compound: "CN(C)C[C@@]1(C)COC[C@@H](COc2ccc(-c3cc(C(N)=O)c(=O)[nH]c3C(F)(F)F)cc2)O1 [Example 423]"
  IC50: "5 to 10 µM"
- Compound: "CN1CC(COc2ccc(-c3cc(C(N)=O)c(=O)[nH]c3C(F)(F)F)cc2)OC1=O (stereo not drawn) [Example 233]"
  IC50: "25 to 50 µM"
- Compound: "COC[C@@H]1COC[C@H](COc2ccc(-c3cc(C(N)=O)c(=O)[nH]c3C(F)(F)F)cc2)O1 (single isomer, unassigned) [Example 400]"
  IC50: "5 to 10 µM"
- Compound: "NC(=O)c1cc(-c2ccc(OCC3COCC(CO)O3)cc2)c(C(F)(F)F)[nH]c1=O (stereo not drawn) [Example 384]"
  IC50: "5 to 10 µM"
- Compound: "NC(=O)c1cc(-c2ccc(OCC3C[C@@H]4CC[C@H]3O4)cc2)c(C(F)(F)F)[nH]c1=O (single isomer, unassigned) [Example 312]"
  IC50: "5 to 10 µM"
- Compound: "NC(=O)c1cc(-c2ccc(OCc3cnn(CC4CC4)c3)cc2)c(C(F)(F)F)[nH]c1=O [Example 221]"
  IC50: "10 to 25 µM"
- Compound: "NC(=O)c1cc(-c2ccc(OCC3COCC(COCC4CC4)O3)cc2)c(C(F)(F)F)[nH]c1=O (single isomer, unassigned) [Example 362]"
  IC50: "5 to 10 µM"
- Compound: "NC(=O)c1cc(-c2ccc(OCC3COC(CF)CO3)cc2)c(C(F)(F)F)[nH]c1=O (single isomer, unassigned) [Example 343]"
  IC50: "5 to 10 µM"
- Compound: "NC(=O)c1cc(-c2ccc(OCC3COCCO3)c(C3CC3)c2)c(C(F)(F)F)[nH]c1=O (stereo not drawn) [Example 243]"
  IC50: "1 to 5 µM"
- Compound: "NC(=O)c1cc(-c2ccc(OCC3COCC(COCC(F)F)O3)cc2)c(C(F)(F)F)[nH]c1=O (single isomer, unassigned) [Example 369]"
  IC50: "5 to 10 µM"
- Compound: "CC1(COc2ccc(-c3cc(C(N)=O)c(=O)[nH]c3C(F)(F)F)cc2)COC1 [Example 227]"
  IC50: "25 to 50 µM"
- Compound: "NC(=O)c1cc(-c2ccc(OCC3COCC(COCC(F)F)O3)cc2)c(C(F)(F)F)[nH]c1=O (single isomer, unassigned) [Example 368]"
  IC50: "5 to 10 µM"
